PROTOCOL_SUMMARY: pKa value was evaluated
Format: physicochemical
MEASURE: pKa
// keep it numeric: no unit symbol after the value

Input: Look up pKa for this compound: C[C@H]([C@@H]1C[C@@H]1C(=O)O)[C@H]1CC[C@H]2[C@@H]3[C@@H](O)CC4C[C@H](O)CC[C@]4(C)[C@H]3CC[C@]12C (some centres undefined)
Output: 5.02

Input: Likewise for CC(C1CC[C@H]2[C@@H]3[C@@H](O)CC4C[C@H](O)CCC4(C)[C@H]3CCC12C)[C@H]1C[C@H]1C(=O)O (some centres undefined) ?
Output: 5.05

Input: Likewise for CC(C1CC[C@H]2[C@@H]3[C@@H](O)CC4C[C@H](O)CCC4(C)[C@H]3CCC12C)[C@@H]1C[C@@H]1C(=O)O (some centres undefined) ?
Output: 5.04

Input: Likewise for C[C@H]([C@H]1C[C@H]1C(=O)O)[C@H]1CC[C@H]2[C@@H]3[C@@H](O)CC4C[C@H](O)CC[C@]4(C)[C@H]3CC[C@]12C (some centres undefined) ?
Output: 5.04
